Target: HLA-B*27:05
Test: IEDB peptide-MHC binding, purified MHC/direct/fluorescence; filed as Kd, often an IC50 or EC50 that approximates it; bounds were set here for any values at or beyond the usual limits of such assays
Settings: source organism: Pseudomonas tolaasii
pKd: −log10 of the molar value.
MEASURED PARAMETER: pKd

>>> result("AEGTGITHL")
"≤ 4.70"

###

Target: HLA-A*24:02
Experiment: IEDB peptide-MHC binding, purified MHC/competitive/radioactivity; filed as Kd, often an IC50 or EC50 that approximates it; bounds were set here for any values at or beyond the usual limits of such assays
Settings: source organism: Dengue virus 4 Philippines/H241/1956
pKd: −log10 of the molar value.
MEASURED PARAMETER: pKd

>>> recorded_number("LLMRTTWAF")
7.61

###

Target: HLA-A*69:01
Assay: IEDB peptide-MHC binding, purified MHC/direct/fluorescence; filed as Kd, often an IC50 or EC50 that approximates it; bounds were set here for any values at or beyond the usual limits of such assays
Conditions: source organism: Mammarenavirus machupoense
MEASURED PARAMETER: Kd

>>> result("LITEQFLCY")
"≥ 20 µM"

###

Biological target: HLA-B*18:01
Experiment: IEDB peptide-MHC binding, purified MHC/competitive/fluorescence; filed as Kd, often an IC50 or EC50 that approximates it; bounds were set here for any values at or beyond the usual limits of such assays
Conditions: source organism: Encephalitozoon cuniculi GB-M1
pKd: −log10 of the molar value.
MEASURED PARAMETER: pKd

>>> result("NLFEIEWEE")
"≤ 4.70"

###

Molecular target: HLA-A*03:01
Assay: IEDB peptide-MHC binding, purified MHC/direct/fluorescence; filed as Kd, often an IC50 or EC50 that approximates it; bounds were set here for any values at or beyond the usual limits of such assays
Settings: source organism: Vibrio vulnificus
MEASURED PARAMETER: Kd (µM)

>>> recorded_number("QSPQPVRVK")
19.3

###

Target: HLA-A*24:03
Test: IEDB peptide-MHC binding, purified MHC/direct/fluorescence; filed as Kd, often an IC50 or EC50 that approximates it; bounds were set here for any values at or beyond the usual limits of such assays
Conditions: source organism: Marburg virus - Musoke, Kenya, 1980
MEASURED PARAMETER: Kd (nM)

>>> recorded_number("LYKTIVNIW")
160

###

Target: HLA-A*30:01
Assay: IEDB peptide-MHC binding, purified MHC/direct/fluorescence; filed as Kd, often an IC50 or EC50 that approximates it; bounds were set here for any values at or beyond the usual limits of such assays
Conditions: source organism: Aggregatibacter actinomycetemcomitans
pKd: −log10 of the molar value.
MEASURED PARAMETER: pKd

>>> recorded_number("TTRAWFDKK")
9.64

###

Molecular target: HLA-B*18:01
Assay: IEDB peptide-MHC binding, purified MHC/direct/fluorescence; filed as Kd, often an IC50 or EC50 that approximates it; bounds were set here for any values at or beyond the usual limits of such assays
Conditions: source organism: Lyssavirus rabies
MEASURED PARAMETER: Kd

>>> result("RQMKSGGRF")
"≥ 20 µM"

###

Molecular target: HLA-A*26:01
Experiment: IEDB peptide-MHC binding, purified MHC/competitive/radioactivity; filed as Kd, often an IC50 or EC50 that approximates it; bounds were set here for any values at or beyond the usual limits of such assays
Details: source organism: SARS coronavirus Tor2
The following sequences are shown together with reported log10 Kd values.
MEASURED PARAMETER: log10 Kd (log10 of the value in nM)

>>> recorded_number("VYALCTLLHL")
4.15
>>> recorded_number("RFLYIIKLVF")
4.22
>>> recorded_number("TSSGDATTAY")
2.81
>>> recorded_number("HSYGIDLKSY")
2.65
>>> recorded_number("YIESKRGVY")
2.87
>>> recorded_number("YYSLLMPIL")
4.14
>>> recorded_number("LAAEWVLAY")
1.88
>>> recorded_number("IFFASFYYIW")
3.14

###

Molecular target: HLA-B*15:17
Assay: IEDB peptide-MHC binding, purified MHC/competitive/fluorescence; filed as Kd, often an IC50 or EC50 that approximates it; bounds were set here for any values at or beyond the usual limits of such assays
Conditions: source organism: Orthomarburgvirus marburgense
MEASURED PARAMETER: Kd

>>> result("TVLEFILQK")
"≥ 20 µM"
>>> result("LYKTIVNIW")
"≥ 20 µM"

###

Biological target: HLA-A*33:01
Assay: IEDB peptide-MHC binding, purified MHC/competitive/radioactivity; filed as Kd, often an IC50 or EC50 that approximates it; bounds were set here for any values at or beyond the usual limits of such assays
Conditions: source organism: Vaccinia virus WR
Listing of entries alongside the reported log10 Kd.
MEASURED PARAMETER: log10 Kd (log10 of the value in µM)

>>> recorded_number("VSVSDFRDY")
1.08
>>> recorded_number("VTRKCPQKK")
1.09
>>> recorded_number("FLEFSNRVY")
0.93
>>> recorded_number("ISDYSAEVER")
0.13
>>> recorded_number("SLTILDDNLY")
1.18
>>> recorded_number("DSMDVLAEK")
-2.74
>>> recorded_number("ESRPFDLIK")
0.53
>>> recorded_number("VALYRRIQR")
-1.89
>>> recorded_number("KVVDTFISY")
1.09
>>> recorded_number("VISKIYTLIY")
0.35
>>> recorded_number("HINTLIQYR")
-1.78
>>> recorded_number("RALKAYFTAK")
1.20
>>> recorded_number("SFIVPEFAK")
0.92
>>> recorded_number("VLPHLCLDYK")
1.29
>>> recorded_number("EQLSKYVEK")
-0.08
>>> recorded_number("TVNICIFYDR")
-1.14
>>> recorded_number("SSMTIREFPR")
-1.76
>>> recorded_number("NAISSRVDR")
-1.02
>>> recorded_number("IMFMLIFNVK")
0.09
>>> recorded_number("ELRRAAIDR")
0.04
>>> recorded_number("TLITLILSNK")
0.93
>>> recorded_number("IITSTKTIEY")
1.15
>>> recorded_number("PLIDIIRKR")
0.01
>>> recorded_number("NLTDTNFKK")
0.65
>>> recorded_number("SVKYYGRSTK")
1.13

###

Molecular target: HLA-A*31:01
Assay: IEDB peptide-MHC binding, purified MHC/direct/fluorescence; filed as Kd, often an IC50 or EC50 that approximates it; bounds were set here for any values at or beyond the usual limits of such assays
Settings: source organism: Vibrio cholerae
MEASURED PARAMETER: Kd

>>> result("ALYWALMES")
"≥ 20 µM"
>>> result("WAGIWGGKL")
"≥ 20 µM"

###

Target: HLA-B*08:01
Test: IEDB peptide-MHC binding, purified MHC/competitive/fluorescence; filed as Kd, often an IC50 or EC50 that approximates it; bounds were set here for any values at or beyond the usual limits of such assays
Settings: source organism: Salmonella enterica subsp. enterica serovar Typhi
MEASURED PARAMETER: Kd (nM)

>>> recorded_number("MMLSPLVAL")
960

###

Biological target: HLA-A*02:01
Assay: IEDB peptide-MHC binding, purified MHC/competitive/radioactivity; filed as Kd, often an IC50 or EC50 that approximates it; bounds were set here for any values at or beyond the usual limits of such assays
Conditions: source organism: Vaccinia virus WR
pKd: −log10 of the molar value.
MEASURED PARAMETER: pKd

>>> result("VLPHLCLDYK")
"≤ 4.16"

###

Biological target: HLA-B*51:01
Assay: IEDB peptide-MHC binding, purified MHC/direct/fluorescence; filed as Kd, often an IC50 or EC50 that approximates it; bounds were set here for any values at or beyond the usual limits of such assays
Conditions: source organism: Mammarenavirus machupoense
pKd: −log10 of the molar value.
MEASURED PARAMETER: pKd

>>> result("LITEQFLCY")
"≤ 4.70"

###

Target: HLA-A*69:01
Test: IEDB peptide-MHC binding, purified MHC/direct/fluorescence; filed as Kd, often an IC50 or EC50 that approximates it; bounds were set here for any values at or beyond the usual limits of such assays
Conditions: source organism: Campylobacter jejuni RM1221
MEASURED PARAMETER: Kd

>>> result("AKYEICLEK")
"≥ 20 µM"

###

Target: HLA-A*02:06
Assay: IEDB peptide-MHC binding, purified MHC/direct/fluorescence; filed as Kd, often an IC50 or EC50 that approximates it; bounds were set here for any values at or beyond the usual limits of such assays
Conditions: source organism: Brucella suis ATCC 23445
pKd: −log10 of the molar value.
MEASURED PARAMETER: pKd

>>> recorded_number("LSDDSGLMV")
7.21

These entries and their values trace back to the Immune Epitope Database (IEDB).
